SUBJECT_OF_TEST: P2X purinoceptor 7 (Homo sapiens, UniProt Q99572)
MEASUREMENT_DESCRIPTION: Antagonist activity at human P2X7 receptor in human THP1 cells assessed as inhibition of BzATP-induced IL-1beta release pretreated for 30 mins before bzATP challenge measured after 30 mins by ELISA
pIC50: −log10 of the molar value.
Quick rule for you: pIC50 at 7 or higher means MET, lower means NOT MET.

Check if pIC50 >= 7 (inclusive). Item: O=C(CCC1CCCCC1)NNc1c(Cl)cncc1Cl
MET

Check if pIC50 >= 7 (inclusive). Item: O=C(NNc1c(Cl)cncc1Cl)C1C2CC3CC(C2)C(Br)C1C3 (configuration not stated)
MET

Check if pIC50 >= 7 (inclusive). Item: O=C(CC1CCCCCC1)NNc1c(Cl)cncc1Cl
MET

Check if pIC50 >= 7 (inclusive). Item: CC12CC3CC(C)(C1)CC(C(=O)NNc1c(Cl)cncc1Cl)(C3)C2
MET

Check if pIC50 >= 7 (inclusive). Item: O=C(CCc1ccccc1)NNc1c(Cl)cncc1Cl
NOT MET

---

SUBJECT_OF_TEST: UniProt Q99572
Sequence (Q99572 whole entry): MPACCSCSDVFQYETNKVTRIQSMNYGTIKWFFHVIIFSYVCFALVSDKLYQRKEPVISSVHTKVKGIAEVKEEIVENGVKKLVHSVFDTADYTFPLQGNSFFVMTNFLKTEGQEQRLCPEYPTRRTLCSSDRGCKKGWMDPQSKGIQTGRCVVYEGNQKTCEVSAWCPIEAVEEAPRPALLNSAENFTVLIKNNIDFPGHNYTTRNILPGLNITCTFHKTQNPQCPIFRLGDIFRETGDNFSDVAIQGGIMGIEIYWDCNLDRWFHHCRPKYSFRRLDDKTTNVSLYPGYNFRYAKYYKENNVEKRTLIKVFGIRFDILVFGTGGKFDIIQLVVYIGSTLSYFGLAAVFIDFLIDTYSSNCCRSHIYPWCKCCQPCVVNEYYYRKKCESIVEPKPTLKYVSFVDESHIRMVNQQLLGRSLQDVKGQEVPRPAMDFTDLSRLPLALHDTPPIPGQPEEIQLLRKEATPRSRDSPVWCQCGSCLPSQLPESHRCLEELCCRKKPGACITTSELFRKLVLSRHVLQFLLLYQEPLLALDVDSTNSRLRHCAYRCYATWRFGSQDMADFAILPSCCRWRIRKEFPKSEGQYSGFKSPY
MEASUREMENT_DESCRIPTION: Antagonist activity at human P2X7 receptor expressed in HEK293 cells assessed as inhibition of BzATP-induced ethidium bromide uptake after 2 hrs by fluorescence analysis
Assay type: functional, cell-based
pIC50: −log10 of the molar value.
Quick rule for you: pIC50 at 6 or higher means class 1, lower means class 0.

Check if pIC50 >= 6 (inclusive). Item: O=C(CCC1CCCCC1)NNc1c(Cl)cncc1Cl
class 1

Check if pIC50 >= 6 (inclusive). Item: CN([C@@H](Cc1ccc(OS(=O)(=O)c2cccc3cnccc23)cc1)C(=O)N1CCN(c2ccccc2)CC1)S(=O)(=O)c1cccc2cnccc12
class 1

Check if pIC50 >= 6 (inclusive). Item: CC12CC3CC(C)(C1)CC(C(=O)NNc1c(Cl)cncc1Cl)(C3)C2
class 1

Check if pIC50 >= 6 (inclusive). Item: O=C(CCCCCc1ccccc1)NNc1c(Cl)cncc1Cl
class 0
